Entry source: patent US9434711B2

target: canine TRPM8 (Canis lupus familiaris, UniProt Q1A7N1); experiment: In Vitro Canine TRPM8 Functional Assay (Ca2+ fluorescence, icilin activation); assay type: cell-based; settings: compound at 0.2 μM; canine TRPM8, icilin activation; read-out: % Inh @ 0.2
Sequence (Q1A7N1 1-1104): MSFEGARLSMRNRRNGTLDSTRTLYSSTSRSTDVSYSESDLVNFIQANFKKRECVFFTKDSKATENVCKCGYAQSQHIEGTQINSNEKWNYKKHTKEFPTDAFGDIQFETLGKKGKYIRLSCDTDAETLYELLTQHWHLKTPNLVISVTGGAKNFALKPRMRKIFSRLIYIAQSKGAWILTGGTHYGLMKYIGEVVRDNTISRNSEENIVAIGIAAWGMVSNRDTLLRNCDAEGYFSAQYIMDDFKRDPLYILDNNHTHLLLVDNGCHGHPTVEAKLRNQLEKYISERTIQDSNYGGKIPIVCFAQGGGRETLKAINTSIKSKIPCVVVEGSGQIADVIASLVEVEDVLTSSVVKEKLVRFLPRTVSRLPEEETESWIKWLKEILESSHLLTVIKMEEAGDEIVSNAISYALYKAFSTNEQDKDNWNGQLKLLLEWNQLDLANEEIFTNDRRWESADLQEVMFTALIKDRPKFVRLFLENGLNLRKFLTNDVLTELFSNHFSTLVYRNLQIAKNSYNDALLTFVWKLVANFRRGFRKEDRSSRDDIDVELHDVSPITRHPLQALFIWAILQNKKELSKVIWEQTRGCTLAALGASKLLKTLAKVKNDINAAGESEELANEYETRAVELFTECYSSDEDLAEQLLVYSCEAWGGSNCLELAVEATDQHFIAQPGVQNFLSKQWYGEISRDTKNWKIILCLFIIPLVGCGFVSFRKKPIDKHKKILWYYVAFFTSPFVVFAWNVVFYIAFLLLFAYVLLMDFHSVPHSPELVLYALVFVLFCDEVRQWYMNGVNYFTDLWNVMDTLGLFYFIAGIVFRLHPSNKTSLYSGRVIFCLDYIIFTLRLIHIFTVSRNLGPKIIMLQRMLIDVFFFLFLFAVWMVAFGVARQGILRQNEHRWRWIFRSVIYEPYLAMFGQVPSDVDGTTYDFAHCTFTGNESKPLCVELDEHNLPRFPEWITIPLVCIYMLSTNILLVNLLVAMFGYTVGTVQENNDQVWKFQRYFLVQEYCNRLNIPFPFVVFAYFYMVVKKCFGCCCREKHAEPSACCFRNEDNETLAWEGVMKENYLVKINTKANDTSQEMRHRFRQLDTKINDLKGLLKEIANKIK
result-type: inhibition at 0.2 µM (%)

Solved cases below.
{"compound": "Cc1nccc(-c2cccc(S(=O)(=O)N(Cc3ccc(F)c(C(F)(F)F)c3)c3sc4ccccc4c3C)c2)n1", "inhibition at 0.2 µM (%)": 98}
{"compound": "Cc1c(N(Cc2ccc(F)c(C(F)(F)F)c2)S(=O)(=O)c2ccc(C(=O)O)cc2F)sc2ccccc12", "inhibition at 0.2 µM (%)": 101}
{"compound": "Cc1c(N(Cc2ccc(F)c(C(F)(F)F)c2)S(=O)(=O)c2ccc(C(=O)O)c(F)c2)sc2ccccc12", "inhibition at 0.2 µM (%)": 95}
{"compound": "O=c1[nH]c(-c2ccc(S(=O)(=O)N(CCC(F)(F)F)c3sc4ccccc4c3Br)cc2)ns1", "inhibition at 0.2 µM (%)": 102}
{"compound": "Nc1ccc(S(=O)(=O)N(Cc2ccc(F)c(C(F)(F)F)c2)c2sc3ccccc3c2Br)cc1Br", "inhibition at 0.2 µM (%)": 103}
{"compound": "O=S(=O)(c1cccc(-c2nnn[nH]2)c1)N(Cc1ccc(F)c(C(F)(F)F)c1)c1sc2ccccc2c1Br", "inhibition at 0.2 µM (%)": 100}
{"compound": "O=S(=O)(c1ccc(Cl)nc1)N(Cc1ccc(F)c(C(F)(F)F)c1)c1sc2ccccc2c1Br", "inhibition at 0.2 µM (%)": 100}
{"compound": "COC(=O)CCS(=O)(=O)N(Cc1cccc(OC(F)(F)F)c1)c1sc2ccccc2c1C", "inhibition at 0.2 µM (%)": 94}
{"compound": "COC(=O)c1cccc(S(=O)(=O)N(Cc2ccc(F)c(C(F)(F)F)c2)c2sc3ccccc3c2C)c1", "inhibition at 0.2 µM (%)": 98}
{"compound": "CCCCN(c1sc2ccccc2c1C)S(C)(=O)=O", "inhibition at 0.2 µM (%)": 84}

(I) Cc1c(N(Cc2ccc(F)cc2)S(=O)(=O)c2ccc(C(=O)O)cc2)sc2ccccc12
(II) Cc1c(N(Cc2ccc(OC(F)(F)F)cc2)S(=O)(=O)c2nc3ccccc3n2C)sc2ccccc12
[Q] Hi, I'm comparing I with II and wondering which one has the bigger number for inhibition at 0.2 µM. Any idea? // output: label of the selected item
[A] I

(a) Cc1c(N(Cc2ccc(F)c(C(F)(F)F)c2)S(=O)(=O)c2cc(C(=O)O)cs2)sc2ccccc12
(b) NS(=O)(=O)N(CC1CC1)c1sc2ccccc2c1Br
(c) COC(=O)c1ccc(CN(c2cc3ccccc3s2)S(=O)(=O)c2cccnc2)cc1
[Q] Which order do these items take when sorted by rising inhibition at 0.2 µM? List them. Could you list the labels in the order requested?
[A] c, b, a
(c: 24%, b: 56%, a: 101%)
